Examples of compounds with documented Population Fragmented Nuclei (%) follow.
tested on: Fibroblast; assay: Multiplex assay against human fibroblast; format: toxicity, cell-based; conditions: 12 h, 1 µM, compound concentration 1 uM, replicate 1
Number in %, nothing else.

// worked examples, Population Fragmented Nuclei (%) included
Param item = `Cc1csc2c(N[C@@H](C)CN3CCN(S(=O)(=O)c4ccc(Cl)c(Cl)c4)CC3)ncnc12` ; retrieve measured Population Fragmented Nuclei (%).
22

Would you kindly repeat that for `C[C@@]1(C(=O)Nc2ccc(F)nc2)CCCN1c1nc(Nc2cc(C3CC3)n[nH]2)c2cccn2n1` ?
36

// same read-out, input: COc1cccc([C@@H](C)NCCCc2ccccc2Cl)c1.Cl [TECALCET HYDROCHLORIDE]
20

---
Return reported Population Fragmented Nuclei (%); argument: `CCN(CC)CCCCNc1ncc2cc(-c3cc(OC)cc(OC)c3)c(NC(=O)NC(C)(C)C)nc2n1`
20

Now give it for `Cc1nc(-c2ccc(-c3ccc(C(=O)N4CCc5cc6c(cc54)C4(CCN(C)CC4)CO6)cc3)c(C)c2)no1` too.
35

----------
tested on: Fibroblast; test: Multiplex assay against human fibroblast; format: toxicity, cell-based; conditions: 24 h, 1 µM, compound concentration 1 uM, replicate 2
Listed here: items and their measured Population Mitochondria Different-Phenotype (%).
State the answer as a number, implicitly in %.

# get_value(readout='Population Mitochondria Different-Phenotype (%)', item= COc1cccc([C@@H](C)NCCCc2ccccc2Cl)c1.Cl [TECALCET HYDROCHLORIDE] )
6

----------
system: U2OS; experiment: Multiplex assay against U2OS; format: toxicity, cell-based; conditions: human, 24 h, 10 µM, compound concentration 10 uM, replicate 1
Could you please mark True for values of Population Mitotic Cells (%) below 20% and False for values at or above it?

Check if Population Mitotic Cells (%) falls below 20% for `Cn1cc(-c2[nH]c3cc(NC(=O)[C@H](N)C4CCCCC4)cc4c3c2C=NNC4=O)cn1` .
False

// next record `CN(C)CC#Cc1ccc(OCCCc2sc(N3CCc4cccc(C(=O)Nc5nc6ccccc6s5)c4C3)nc2C(=O)O)c(F)c1`
False

Now consider `Cc1c(-c2ccc(O)cc2)n(Cc2ccc(OCCN3CCCCCC3)cc2)c2ccc(O)cc12` and answer again.
False

Then what about the compound CN1CCCC(n2nc(Cc3ccc(Cl)cc3)c3ccccc3c2=O)CC1.Cl (stereo not drawn) [AZELASTINE HYDROCHLORIDE] ?
True

CC(C)NCC(O)COc1ccc(CCOCC2CC2)cc1.Cl (stereo not drawn) [BETAXOLOL HYDROCHLORIDE] , same question.
False

Also check `CN(C)C(=O)/C(C#N)=C/c1ccc(-c2nc3cnc4[nH]ccc4c3n2C2CCCCC2)o1`
False

Likewise for `CN1CCN(CCOc2cc(OC3CCOCC3)c3c(Nc4c(Cl)ccc5c4OCO5)ncnc3c2)CC1` ?
False

Field: next compound
Determine if `Cc1cc(C)cc(-c2cnc3cc(Cl)c(-c4cccc(O)c4)cc3c2OCCCN)c1` shows Population Mitotic Cells (%) strictly lower than 20%.
True

----------
system: HEK-293T; assay: Multiplex assay against HEK293T; format: toxicity, cell-based; conditions: human, 48 h, 10 µM, compound concentration 10 uM, replicate 2
Listed compounds paired with reported Population Membrane Permeable-Phenotype (%)

For the compound Cc1c(-c2ccc(O)cc2)n(Cc2ccc(OCCN3CCCCCC3)cc2)c2ccc(O)cc12 [BAZEDOXIFENE] , what Population Membrane Permeable-Phenotype (%) is on record?
20%

Also need CNCc1ccccc1-c1csc([C@H](C)Nc2nc(C)nc3cc(OC)c(OC)cc23)c1 [BAY-294] , thanks.
6%

CC(C)NCC(O)COc1ccc(CCOCC2CC2)cc1.Cl (stereo not drawn) [BETAXOLOL HYDROCHLORIDE] ?
1%

***
What Population Membrane Permeable-Phenotype (%) value was documented for this compound, COc1cccc([C@@H](C)NCCCc2ccccc2Cl)c1.Cl [TECALCET HYDROCHLORIDE] ?
0%

What do we get for `CCn1c(=O)c(-c2ccc(Cl)cc2Cl)cc2cnc(Nc3ccc(N4CCNCC4)c(F)c3)nc21` ?
7%

Now the same for `CC(C)(O)CNc1ncc(-c2ccnc(Nc3ccnc(Cl)c3)n2)c(CC2CC2)n1`
0%

Would you mind doing CN1CCN(CCOc2cc(OC3CCOCC3)c3c(Nc4c(Cl)ccc5c4OCO5)ncnc3c2)CC1 [SARACATINIB] as well?
0%

Item: NC(=O)Nc1cc(-c2cccc(F)c2)sc1C(=O)N[C@H]1CCCNC1 [AZD-7762]
5%
